test: soluble on expression in E. coli; label from the status in PepcDB or PDB records

SEQUENCE_DATA: MSTINFANREINFKIVYYGPGLSGKTTNLKWIYSKVPEGRKGEMVSLATEDERTLFFDFLPLDIGEVKGFKTRFHLYTVPGQVFYNASRKLILRGVDGIVFVADSAPNRLRANAESMRNMRENLAEYGLTLDDVPIVIQVNKRDLPDALPVEMVRAVVDPEGKFPVLEAVATEGKGVFETLKEVSRLVLARVAGGS
soluble on expression in E. coli: soluble
//
SEQUENCE_DATA: MDSRIAIYVLVSASLLYLVNCHKLVHYFNLKINGSDITNTADILLDNYPIMTFDGKDIYPSIAFMVGNKLFLDLYKNIFVEFFRLFRVSVSSQYEELEYYYSCDYTNNRPTIKQHYFYNGEEYTEIDRSKKATNKNSWLITSGFRLQKWFDSEDCIIYLRSLVRRMEDSNKNSKKT
soluble on expression in E. coli: not soluble
//
SEQUENCE_DATA: MGSDKIHHHHHHMAKQKDGFLGEQALVLPPAIVQRMKTDPATSILYITDIGYYPKAYNHFRERETPIDQYVFIYCTEGRGWFSLDGQKHPVVPNQYFILPAGLPHAYGADEKEPWTIYWIHFGGTLAPLYCTHRTCRLTDIKPGMHSRISYRTELFEEIFRVLKMGYSLENLSYASSVFHHYLGSLRYLREYREAFSEHRPAGEEDPVNAAIHYMKENLGKKLTLAELADYTGYSSSYFSNLFLKRTGYAPLSYFNQIKIQKACQFLDFTDMKVNQVCYRVGIEDAYYFSRLFSQIMGMSPREYKKVKKG
soluble on expression in E. coli: not soluble
//
SEQUENCE_DATA: EKGLEIAQERKARDEGWGDSIATMEMILKNAQGESSTRLMRLKSLEVEGDGDKGLTIFDQPRDVTGTAFLNHSHTIGADDQWLYLPALKRVKRISSRNKSGPFMGSEFAYEDLSSFEIEKYRFNHLKDEKFNGQDVFVLEQIPTDKNSGYTKQVVWLDKAHYRPLKVEFYDRKGALLKTLTFANYKQYLDKYWRAHTMAMTNHQTGKSTELNTSDLRFQTGLEENDFNKNVLKR
soluble on expression in E. coli: soluble
//
SEQUENCE_DATA: GKPKTDTDFQTYNGDGFKLQIPSKWNPNKEVEYPGQVLRFEDNFDATSNVIVAITPTDKKSITDFGSPEQFLSQVDYLLGRQAYSGKTDSEGGFESDAVAIANVLETSTAEVGGKQYYYLSILTRTADGNEGGKHQLVTATVNDGKLYICKAQAGDKRWFKGAKKFVENTATSFSLA
soluble on expression in E. coli: soluble
//
SEQUENCE_DATA: MSLTLTIEEIAKTKKLLVVSDFDGTIAGFSKDAYNVPINQKSLKAVKDLSQQADTDVVILSGRHLEGLKTVLDLGQYDITMVGSHGSEDSSRPRTLTPEEVARLAKIEADLEKIVDGIEGAFVEIKPFHRVLHFIRVSDKDKVQGILAQAAHVDSSGLKVTNGKSIIEYSISSTTKGTWLKEYVDRTEPTGVIFLGDDTTDEHGFKALENDDRALTVKVGEGDTAAKTRVDDVDNVGIFLEKLAYHRMQYAESVRLGEGHHHHHH
soluble on expression in E. coli: soluble
//
SEQUENCE_DATA: MGVVLIDGSTVRSFVDDEEQFKKSVDERFAALDLNKDGVLSRSELRKAFESMRLLESHFGVDVVTPQDELTNLYDSIFEKFDTDQSGSVDLEEFRSEMKKIVLAIADGLGSCPITMVLDDDDDNFLKKAADLEASKLEKASS
soluble on expression in E. coli: soluble
//
SEQUENCE_DATA: MSLIENLWRGICIISASEDAFSAGETIKEKLKSFEIPVVHYRYKDAEIETIWKCYDAIVFVMALEGATRIVCKYAKSKTEDPAIVCIDDKINYVIPLLGGHWGANDIARELSVILNSTPIITTAAEIKGKLSIERIANILIAKIINPENIVKINAALLRDESICIDGIDVNVNFPENIKVNSEECSYIISLRGDKEYKDKIVVWLKPLKISIGIGSKKDVKMEEIRDGIYKVLERLNLKRERIGIIASIREEVKKIADEFNVRFRLVNEEEINNFMNPCLTPPSKTLIEVGLKGVAEISALIAGGRNSKLILRKIAISRNSTIAVATYEGHHHHHH
soluble on expression in E. coli: soluble
//
SEQUENCE_DATA: METPKLSVEAIEKGTVIDHIPAGRGLTILRQFKLLHYGNAVTVGFNLPSKTQGSKDIIKIKGVCLDDKAADRLALFAPEAVVNTIDNFKVVQKRHLNLPDEIAEVFRCPNTNCAGHGEPVKSRFYVKKHNGQTRLKCHYCEKTYSRDSVAEA
soluble on expression in E. coli: not soluble
//
SEQUENCE_DATA: MSLDSKLIFFDIDGTIYDHDKNIPESTRKTVAELQRQGHHVFIASGRSPFLVKPILEELGIHSFISYNGQFVVFENQVIYKNPLPENAIRRLLKQADEGKHPVVFMAEDTMKATVADHPHVLEGIGSLKTDYPETDDLFYEGKEIFQLLLFCQDEEEKAYAAFPEFDLVRWHELSTDVLPHGGSKAEGIKKVIERLPFDIGDTYAFGDGLNDLQMIEYVGTGVAMGNAVPELKEIADFVTKPVDEDGIAYAVKELGLLKEGHHHHHH
soluble on expression in E. coli: soluble
//
SEQUENCE_DATA: MRKNILIFSLIAFSLTIHCSEIRVQRSLEESITKDYDQDGVYSSYEKALRRTQESVYVTLPEKRGYWYTMLDRIKAEEKELIPDEKVRMRKR
soluble on expression in E. coli: not soluble
//
SEQUENCE_DATA: MIHGIGVDLIEIDRIQALYSKQPKLVERILTKNEQHKFNNFTHEQRKIEFLAGRFATKEAFSKALGTGLGKHVAFNDIDCYNDELGKPKIDYEGFIVHVSISHTEHYAMSQVVLEKSAF
soluble on expression in E. coli: not soluble
//
SEQUENCE_DATA: MTFMKLYFFGDDNNKPKLSEHLIIYILSLLDPKSQSVASLVNKDWSRLVQLTRQYLSMLPVIHRIPLFANLGLDVLKLKLMTGGMTNSTVRLRIKNAPEKWVMRIPGIGSSAFITRRDEAHNAKQAEKLGLNVPIAFFDPEDGLQVTRFIEGVHSLDDKALARKEILHEVASMMRRLHKSPPFDNNTLFFERNEELLDLLKRKPFNFPGEIEFVEQQMKNLKEIFSSYHIQQFPCHNDTTPLNFILSENPEIKGSEKIHQIDWEYSSNNDFIWDLVYFMVEAKLNREQQLILLKAYFNTEELSDSLLAWIEVYKPIIEWWITIWSWTQLANGANAVDLSSYEQLGLERYHNTLSHLKSEDYVKALALIEADSHSLTFTGQRPF
soluble on expression in E. coli: not soluble
